- Test system: antibody core fucosylation
- ASSAY_DETAILS: Inhibition of antibody core fucosylation by fucose analogs
- Type: cell-based
- CONDITION_SET: Table 1, 1 mM analog
- Excerpt: Methods of determining whether a fucose analog is capable of having an effect on antibody core fucosylation is provided in WO 2012/019165.
PARAMETER_MEASURED: Inhibition at 1 mM

MOLECULE	PARAMETER_MEASURED	OBSERVED_RESULT
C#C[C@@H]1OC(OC(=O)CC)[C@@H](OC(=O)CC)[C@H](OC(=O)CC)[C@@H]1OC(=O)CC (stereo partly drawn) [Alkynyl fucose tetrapropanonate, 5-ethynylarabinose tetrapropropanoate]	Inhibition at 1 mM	>80%
C#C[C@H]1OC(OC(=O)c2ccncc2)[C@@H](OC(=O)c2ccncc2)[C@H](OC(=O)c2ccncc2)[C@@H]1OC(=O)c1ccncc1 (stereo partly drawn) [Alkynyl fucose perisonicotinate]	Inhibition at 1 mM	>80%
C#CC1OC(OC(=O)c2cccnc2)C(OC(=O)c2cccnc2)C(OC(=O)c2cccnc2)C1OC(=O)c1cccnc1 (stereo not drawn) [Alkynyl fucose pernicotinate]	Inhibition at 1 mM	>80%
C#C[C@H](OC(C)=O)[C@H]1OC(OC)[C@@H](OC(C)=O)[C@@H]1OC(C)=O (stereo partly drawn)	Inhibition at 1 mM	>80%
C=CC1OC(OC(C)=O)C(OC(C)=O)C(OC(C)=O)C1OC(C)=O (stereo not drawn) [5-vinyl fucose tetraacetate, 5-ethylenylarabinose tetraacetate]	Inhibition at 1 mM	~4%
C#C[C@@H]1OC(OC(=O)C(C)C)[C@@H](OC(=O)C(C)C)[C@H](OC(=O)C(C)C)[C@@H]1OC(=O)C(C)C (stereo partly drawn) [Alkynyl fucose perisobutanoate]	Inhibition at 1 mM	>80%
